Kindly supply the reported residual activity values for the records listed here.
target: UniProt P63319; assay: Inhibition of rat PKC gamma expressed in Sf9 cells at 100 uM; conditions: values are per cent of control
Answers are plain numbers, in %.

// for each compound below, give its residual activity
1. COc1ccc(C2=C(c3cc(OC)c(OC)c(OC)c3)C(=O)NC2=O)cc1
2. COc1cc(C2=C(c3ccccc3)C(=O)NC2=O)cc(OC)c1OC
3. COc1ccc2[nH]cc(C3=C(c4cc(OC)c(OC)c(OC)c4)C(=O)NC3=O)c2c1

1. 109
2. 103
3. 99

// for each compound below, give its residual activity
1. COc1cc(C2=C(c3c(-c4ccccc4)[nH]c4ccccc34)C(=O)NC2=O)cc(OC)c1OC
2. COc1ccc(C2=C(c3cc(OC)c(OC)c(OC)c3)C(=O)NC2=O)cc1O

1. 114
2. 101
